# assay_target: human P2X7 (Homo sapiens (Human))
# Sequence (Q99572 whole entry): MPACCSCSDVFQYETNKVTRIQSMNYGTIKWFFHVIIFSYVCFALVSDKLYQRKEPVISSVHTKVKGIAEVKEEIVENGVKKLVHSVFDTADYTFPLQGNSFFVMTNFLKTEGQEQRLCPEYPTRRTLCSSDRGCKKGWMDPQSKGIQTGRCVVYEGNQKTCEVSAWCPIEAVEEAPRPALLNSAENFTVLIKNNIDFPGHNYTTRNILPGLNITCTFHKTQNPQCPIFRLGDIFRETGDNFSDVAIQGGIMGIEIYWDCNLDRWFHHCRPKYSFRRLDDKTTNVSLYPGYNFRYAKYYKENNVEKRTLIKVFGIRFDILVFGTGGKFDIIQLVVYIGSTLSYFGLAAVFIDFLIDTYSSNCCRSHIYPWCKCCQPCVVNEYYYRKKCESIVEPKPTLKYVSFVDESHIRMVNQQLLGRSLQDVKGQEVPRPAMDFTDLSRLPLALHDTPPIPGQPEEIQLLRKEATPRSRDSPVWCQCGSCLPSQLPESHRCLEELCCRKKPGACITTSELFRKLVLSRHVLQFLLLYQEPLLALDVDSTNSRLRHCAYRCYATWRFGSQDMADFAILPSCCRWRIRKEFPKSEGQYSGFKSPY
# assay_method_text: P2X7 antagonism in human PBMCs (IL-1β release after LPS + Bz-ATP, ELISA)
# Assay type: cell-based
# cond: human PBMCs, test compound 10 μM
measured_quantity: PBMC 10 μM (% control)

- compound: "Cc1cc(-n2nnc3c2CCN(C(=O)c2cc(Cl)cc(C(F)(F)F)c2)C3C)ncc1F (stereo not drawn)"
  measure_unit: "% control"
  recorded_number: 75.3
- compound: "O=C(c1ccc(F)c(Cl)c1Cl)N1CCc2c(nnn2-c2ccccn2)C1"
  measure_unit: "% control"
  recorded_number: 3.7
- compound: "Cc1cc(-n2nnc3c2CCN(C(=O)c2cccc(C(F)(F)F)c2Cl)C3C)ncn1 (stereo not drawn)"
  measure_unit: "% control"
  recorded_number: 0.3

1. Cc1c(C(=O)N2Cc3nnn(-c4cc[nH]n4)c3CC2C)cccc1C(F)(F)F (stereo not drawn)
2. Cc1cc(-n2nnc3c2CCN(C(=O)c2ccnc(C(F)(F)F)c2Cl)[C@@H]3C)ncc1F (single isomer, unassigned)
Task: Compare the recorded PBMC 10 μM (% control) of 1 and 2 ; state which is larger. Which one? Tell me its label.
Result: 1

I. Cc1cc(-n2nnc3c2CCN(C(=O)c2ccnc(C(F)(F)F)c2Cl)C3C)ncn1 (stereo not drawn)
II. CC1Cc2c(nnn2-c2ccn[nH]2)CN1C(=O)c1cccc(C(F)(F)F)c1F (stereo not drawn)
III. C[C@@H]1Cc2c(nnn2-c2cc(F)ccn2)CN1C(=O)c1cccc(C(F)(F)F)c1Cl (single isomer, unassigned)
IV. C[C@H]1c2nnn(-c3ccn(CCF)n3)c2CCN1C(=O)c1cccc(C(F)(F)F)c1Cl (single isomer, unassigned)
V. C[C@@H]1Cc2c(nnn2-c2ccn[nH]2)[C@@H](C)N1C(=O)c1cccc(C(F)(F)F)c1Cl
Task: I would appreciate it if you could sort these 5 compounds by PBMC 10 μM (% control), starting from the smallest number. Use the labels to give the requested order.
Result: IV, I, II, III, V
(IV: −6.0 % control, I: −0.2 % control, II: 0.5 % control, III: 1.3 % control, V: 3.6 % control)

a. C[C@@H]1c2nnn(-c3ncc(F)cn3)c2CCN1C(=O)c1cccc(C(F)(F)F)c1F (single isomer, unassigned)
b. C[C@H]1Cc2c(nnn2-c2cc(F)ccn2)CN1C(=O)c1cccc(Cl)c1Cl (single isomer, unassigned)
c. CC1c2nnn(-c3ncccn3)c2CCN1C(=O)c1ccc(Cl)cc1F (stereo not drawn)
d. Cc1cc(-n2nnc3c2CCN(C(=O)c2cccc(C(F)(F)F)c2F)C3C)ncn1 (stereo not drawn)
Task: List items by PBMC 10 μM (% control) in falling order. Sort the labels as requested; that list is your answer.
Result: d, a, b, c
(d: 23.0 % control, a: 7.1 % control, b: −3.1 % control, c: −8.3 % control)
